method: Comparative pharmacokinetic test of the formulation in beagle dog, Experimental Example 8
Format: in vivo
assay-setup: beagle, dog, plasma, po, 50 mg, 50 mg tablet (po), per head, single dose, beagle dog plasma; read-out: Vz(terminal)/F
attribute-measured: Vd/F

q: Consider the molecule C[C@@H]1CN(c2ccc(S(C)(=O)=O)cc2F)CCN1c1nccc(C(=O)NC2C3CC4CC2CC(O)(C4)C3)n1 (stereo partly shown) and give its measured Vd/F.
a: 79.3 L

====

method: Comparative pharmacokinetic test of the formulation in beagle dog, Experimental Example 8
Format: in vivo
assay-setup: beagle, dog, plasma, po, 25 mg, 25 mg tablet (po), per head, single dose, beagle dog plasma
attribute-measured: Tmax
// return the numeric value with its unit appended

q: I am curious: what Tmax value has been reported for C[C@@H]1CN(c2ccc(S(C)(=O)=O)cc2F)CCN1c1nccc(C(=O)NC2C3CC4CC2CC(O)(C4)C3)n1 (stereo partly shown) ?
a: 2 h
